measurement-description: Plasma concentration after intravaginal administration of vaginal ring
Type: in vivo, Cynomolgus monkeys
applied-conditions: female, cynomolgus monkey, plasma, other: intravaginal (vaginal ring), 40 mg, ring 40 mg free base; Phase 1 Group 1; 28 d; individual animals; read-out: Plasma concentration of Pritelivir free base
metric-name: concentration at 28 d (ng/mL)
The response must be a number in ng/mL with no trailing unit.

Incoming: Look at this molecule and give its reported concentration at 28 d. Cc1nc(N(C)C(=O)Cc2ccc(-c3ccccn3)cc2)sc1S(N)(=O)=O [Pritelivir free base]
Outgoing: 2.6

---

measurement-description: Plasma concentration after intravaginal administration of vaginal ring
Type: in vivo, Cynomolgus monkeys
applied-conditions: female, cynomolgus monkey, plasma, other: intravaginal (vaginal ring), 40 mg, ring 40 mg free base; Phase 1 Group 1; 17 d; group mean; read-out: Plasma concentration of Pritelivir free base, Mean
metric-name: concentration at 17 d (ng/mL)
The response must be a number in ng/mL with no trailing unit.

Incoming: Look at this compound and give its reported concentration at 17 d. Cc1nc(N(C)C(=O)Cc2ccc(-c3ccccn3)cc2)sc1S(N)(=O)=O [Pritelivir free base]
Outgoing: 3.2
